Where do the numbers come from? From patent US20240270821A1.

biological target: human glucagon receptor (human) (UniProt P47871); assay: cell-based or functional assay
Sequence (P47871 26-477): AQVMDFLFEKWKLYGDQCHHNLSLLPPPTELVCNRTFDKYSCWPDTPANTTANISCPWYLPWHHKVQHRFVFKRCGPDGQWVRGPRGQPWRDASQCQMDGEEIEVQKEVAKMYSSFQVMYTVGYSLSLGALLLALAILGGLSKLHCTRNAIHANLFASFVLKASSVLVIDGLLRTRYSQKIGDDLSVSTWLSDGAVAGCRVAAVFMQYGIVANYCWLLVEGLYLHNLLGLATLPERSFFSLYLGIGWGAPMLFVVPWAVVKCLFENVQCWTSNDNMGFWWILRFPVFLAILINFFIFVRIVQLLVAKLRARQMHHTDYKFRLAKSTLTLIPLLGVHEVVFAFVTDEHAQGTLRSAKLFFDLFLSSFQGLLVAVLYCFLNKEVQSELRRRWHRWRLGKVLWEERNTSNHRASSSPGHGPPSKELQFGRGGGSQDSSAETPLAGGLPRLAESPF
Non-standard residues stand in square brackets, D forms with d. No end group written: not given here. αMePhe(2-F) = C[C@](N)(Cc1ccccc1F)C(=O)O; Aib = CC(C)(N)C(=O)O
measure.name: cAMP Rel EC50, nM (1% HSA) (nM)
Give bare numbers, in nM.

binder	measure.name	units	number
YXQGTXTSDYSILLDKKAQXXFIEYLEEGGPSSGAPPPS (synthetic construct; SITE 2: note = 2-Aminoisobutyric Acid; SITE 6: note = alpha-methyl-2-fluoro-L-phenylalanine; SITE 17: note = Lysine is chemically modified through conjugation of the epsilon-amino group of the Lysine side chain with (gamma-Glu)2-CO-(CH2)16-CO2H; SITE 20: note = 2-Aminoisobutyric) [Example 415]	cAMP Rel EC50, nM (1% HSA)	nM	1090

Report cAMP Rel EC50, nM (1% HSA) for every entry below.
1. Y[Aib]QGT[αMePhe(2-F)]TSDYSKILDKIAQKAFIQYLIEGGPSSGEPPPSEG-NH2 (not fully specified (residue 20)) [Example 354]
2. YXQGTFTSDFSXXLDKKAQXAFIEYLLEAGHSSGAPPPSGE (acylation; synthetic construct; SITE 2: note = 2-Aminoisobutyric Acid; SITE 12: note = L-ornithine; SITE 13: note = alpha-methyl-leucine; SITE 17: note = Lysine is chemically modified through conjugation of the epsilon-amino group of the Lysine side chain with (2-[2-(2-Amino-ethoxy)-ethoxy]-acetyl)-(gamma-Glu)) [Example 207]

## Result
[1440, 770]
